Test: HepG2 cell viability effects, profiling panel, calcein-AM fluorescence, 48 h, basal (AID 1164); further: test concentration not given here
Details: higher = more signal
// reported z-score for each item listed
// no unit string in output, number only

Look over these answered cases.
Give a short answer stating reported z-score for CC(=O)OC[C@H]1OC(ON=CC[C@@H]2C=C[C@H](OC(C)=O)[C@@H](COC(C)=O)O2)[C@H](OC(C)=O)[C@@H](OC(C)=O)[C@@H]1OC(C)=O (stereo partly specified) .
-1.12

Give a short answer stating reported z-score for "CCO[C@H](c1cc(OC)cc([N+](=O)[O-])c1OC)[C@H](C)C=CCC(=O)OC" .
0.381

Give a short answer stating reported z-score for "CCc1cc2c(nc1CC)CCN(CCC(C)=NO[C@H](C)c1cn([C@@H]3COC[C@H]3O)nn1)C2" .
1.75

Give a short answer stating reported z-score for "C[C@@H](c1ccccc1)N1C(=O)[C@H]2[C@H]3[C@H](O)[C@H](O)CC(=NO[C@@H]4O[C@H](CO)[C@@H](O)[C@H](O)[C@H]4O)[C@@H]3CC[C@H]2C1=O" .
-0.943

Give a short answer stating reported z-score for "COc1ccc(O[C@H]2C=C[C@@H](c3ccccc3)O[C@@H]2CON=C2[C@H]3CCn4c(=O)n(-c5ccccc5)c(=O)n4[C@H]3[C@H](O)[C@@H]3O[C@H]23)cc1" .
-0.0924

Please find the next compound below.
Give a short answer stating reported z-score for "O=C(NN=C1C[C@@H](O)[C@@H](O)[C@@H]2[C@@H]3C(=O)N(C4CCCCC4)C(=O)[C@@H]3CC[C@@H]12)OCc1ccccc1" .
0.621
